system: CEM cells HIV-1 protection, formazan growth assay; experiment: NCI AIDS Antiviral Assay;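 active = compounds giving half or more protection of infected cells from virus-caused growth loss, again on retest; inactive = the rest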
Outcome codes: 1 (yes) for active, 0 (no) for inactive

[
  {
    "COMPOUND": "c1ccc(CNc2ccc3[nH]c4cnccc4c3c2)cc1",
    "CLASSIFICATION": "1 (yes)"
  },
  {
    "COMPOUND": "CC1(C)CC2C=C(C=O)C3(C=O)CC3(C)C2C1 (configuration not stated)",
    "CLASSIFICATION": "0 (no)"
  },
  {
    "COMPOUND": "COC(CN(C)C(=S)Nc1cccc2ccccc12)OC",
    "CLASSIFICATION": "0 (no)"
  },
  {
    "COMPOUND": "C[C@@H](O)CCC(=O)c1ccoc1",
    "CLASSIFICATION": "0 (no)"
  },
  {
    "COMPOUND": "CC(C)(c1ccccc1)c1ccc(OC#N)cc1",
    "CLASSIFICATION": "0 (no)"
  },
  {
    "COMPOUND": "CCN(CC)CCN(CC)CC(=O)Nc1ccccc1Cl",
    "CLASSIFICATION": "0 (no)"
  },
  {
    "COMPOUND": "CC(=O)[O-].Cc1ccnc(NS(=O)(=O)c2ccc(N=Cc3ccccc3[O-])cc2)n1.Cc1ccnc(NS(=O)(=O)c2ccc(N=Cc3ccccc3[O-])cc2)n1.[Cu+2]",
    "CLASSIFICATION": "0 (no)"
  }
]

###

test system: CEM cells HIV-1 protection, formazan growth assay; assay: NCI AIDS Antiviral Assay; details: measured here: growth of uninfected CEM cells

[
  {
    "COMPOUND": "COc1ccccc1N/N=c1\\c2nc3ccccc3nc1n(-c1ccccc1C)c(=S)n2-c1ccccn1",
    "IC50": "> 100 µM"
  },
  {
    "COMPOUND": "c1ccc(N2CCN(c3ccccc3)C2)cc1",
    "IC50": "> 200 µM"
  },
  {
    "COMPOUND": "CCc1cccc(CC)c1NC1=CC(=O)C(=O)c2ccccc21",
    "IC50": "> 23.4 µM"
  },
  {
    "COMPOUND": "CN(C)c1ccc(/C=C(\\NC(=O)c2ccccc2)C(=O)Nc2cccc(C(=O)NCCCO)c2)cc1",
    "IC50": "> 200 µM"
  },
  {
    "COMPOUND": "CC(C)(C)C1CNP(=O)(c2ccccc2)OC1 (stereo not drawn)",
    "IC50": "> 70.8 µM"
  },
  {
    "COMPOUND": "CN1CCOC(C(NC(=O)c2ccccc2)c2ccccc2)C1=O (stereo not drawn)",
    "IC50": "> 200 µM"
  },
  {
    "COMPOUND": "O=C(NC(O)C(Cl)(Cl)Cl)NC(O)C(Cl)(Cl)Cl (stereo not drawn)",
    "IC50": "> 200 µM"
  },
  {
    "COMPOUND": "O=C(O)CN1CCN(CC(=O)O)CCN(CC(=O)O)CCN(CC(=O)O)CC1",
    "IC50": "> 200 µM"
  },
  {
    "COMPOUND": "NC(=S)N/N=C\\CC(O)(C(F)(F)F)C(F)(F)F",
    "IC50": "> 200 µM"
  },
  {
    "COMPOUND": "C=CC12CCC(CC1)n1c(=O)n(C)c(=O)n12",
    "IC50": "> 200 µM"
  },
  {
    "COMPOUND": "CN(C)[C@@H]1C(=O)C(C(N)=O)=C(O)[C@@]2(O)C(=O)C3=C(O)c4c(O)ccc(Cl)c4[C@@](C)(O)[C@H]3C[C@@H]12",
    "IC50": "> 14.1 µM"
  },
  {
    "COMPOUND": "O=C(/C=C/c1ccc(OCCCCCCCCCCOc2ccc(/C=C/C(=O)c3ccc(Cl)cc3)cc2)cc1)c1ccc(Cl)cc1",
    "IC50": "> 4.17 µM"
  },
  {
    "COMPOUND": "CCn1ccnc1.CCn1ccnc1.O=C([O-])CC(O)C(=O)[O-].[Pt+2] (stereo not drawn)",
    "IC50": "> 200 µM"
  },
  {
    "COMPOUND": "C[C@@H](O)CCC(=O)c1ccoc1",
    "IC50": "> 1480 µM"
  },
  {
    "COMPOUND": "Cc1cn(C(CO)OC(CO)CP(=O)(O)O)c(=O)[nH]c1=O (stereo not drawn)",
    "IC50": "> 200 µM"
  },
  {
    "COMPOUND": "FC1C2=C(SC1(F)F)C1CCC2C1 (stereo not drawn)",
    "IC50": "> 200 µM"
  },
  {
    "COMPOUND": "Cc1cccc(-n2c(=S)[nH]c3c(sc(=O)n3-c3ccccc3C)c2=O)c1",
    "IC50": "> 2 µM"
  },
  {
    "COMPOUND": "[N-]=[N+]=CC(=O)OC1CCOCC1",
    "IC50": "> 200 µM"
  }
]

###

test system: CEM cells HIV-1 protection, formazan growth assay; test: NCI AIDS Antiviral Assay; conditions: measured here: growth of uninfected CEM cells
Collected IC50 values appear next to each entry.

[
  {
    "COMPOUND": "Cc1c(N=Nc2cc(N=Nc3ccc(N=Nc4ccc(O)c(C(=O)O)c4)cc3)c(N)cc2N)cccc1S(=O)(=O)O",
    "TESTED SYSTEM": "CEM cells HIV-1 protection, formazan growth assay",
    "IC50": "> 100 µM"
  },
  {
    "COMPOUND": "COC(CN1CCOCCOCCOCC1)CN1CCOCCOCCOCC1",
    "TESTED SYSTEM": "CEM cells HIV-1 protection, formazan growth assay",
    "IC50": "> 2510 µM"
  },
  {
    "COMPOUND": "CNc1ncnc2nc(OC)[nH]c12",
    "TESTED SYSTEM": "CEM cells HIV-1 protection, formazan growth assay",
    "IC50": "> 105 µM"
  },
  {
    "COMPOUND": "NC1=NS(=O)(=O)Nc2nc(-c3ccc(Cl)cc3)[nH]c21",
    "TESTED SYSTEM": "CEM cells HIV-1 protection, formazan growth assay",
    "IC50": "> 200 µM"
  },
  {
    "COMPOUND": "CC1OC(n2cc(F)c(=O)[nH]c2=O)CCC1O (stereo not given)",
    "TESTED SYSTEM": "CEM cells HIV-1 protection, formazan growth assay",
    "IC50": "> 200 µM"
  }
]

###

test system: CEM cells HIV-1 protection, formazan growth assay; assay: NCI AIDS Antiviral Assay
pEC50: −log10 of the molar value.
Collected pEC50 values appear next to each entry.

[
  {
    "COMPOUND": "OC12CCCCCC1(N1CCOCC1)c1ccccc12 (centres undefined)",
    "pEC50": "< 3.70"
  },
  {
    "COMPOUND": "O=C1C(=Cc2ccc([N+](=O)[O-])o2)C(=O)N(CCc2ccccc2)S(=O)(=O)N1CCc1ccccc1",
    "pEC50": "< 5.28"
  },
  {
    "COMPOUND": "O=C(Cc1ccccc1[N+](=O)[O-])C(CO)c1ccccc1[N+](=O)[O-] (centres undefined)",
    "pEC50": "< 3.96"
  },
  {
    "COMPOUND": "N#Cc1ccc(/C=C/C(=O)c2ccccc2)cc1",
    "pEC50": "< 4.51"
  },
  {
    "COMPOUND": "COc1oc(C2C/C(=C/C(C)=C/C(C)=C/C(C)=C/c3ccc([N+](=O)[O-])cc3)CO2)c(C)c(=O)c1C (centres undefined)",
    "pEC50": "< 4.41"
  },
  {
    "COMPOUND": "Cn1c(=S)c2c(nc(SCCc3ccccc3)n2CCc2ccccc2)n(C)c1=O",
    "pEC50": "< 3.70"
  },
  {
    "COMPOUND": "Cc1cn(C2C[C@@H]3C(COC(c4ccc([N+](=O)[O-])cc4)N3O)O2)c(=O)[nH]c1=O (some centres undefined)",
    "pEC50": "< 3.70"
  },
  {
    "COMPOUND": "CCCCN1CC(=O)N2CCCC(c3ccccc3)N2C(=O)C1 (centres undefined)",
    "pEC50": "< 3.10"
  },
  {
    "COMPOUND": "CN(C)C(=S)/N=c1\\ss/c(=N\\C(=S)N(C)C)n1-c1ccccc1",
    "pEC50": "< 3.70"
  },
  {
    "COMPOUND": "c1ccc2c(c1)[nH]c1c2nc2ccccn21",
    "pEC50": "< 2.99"
  },
  {
    "COMPOUND": "Cc1cc(C)nc(NS(=O)(=O)c2ccc(NC(=O)c3ccc(Cl)c4c(Nc5ccc(S(=O)(=O)Nc6nc(C)cc(C)n6)cc5)c5ccccc5nc34)cc2)n1",
    "pEC50": "< 4.34"
  },
  {
    "COMPOUND": "N#C/C(=C\\n1c(=S)[nH]c2ccccc21)c1nc2ccccc2s1",
    "pEC50": "< 3.70"
  },
  {
    "COMPOUND": "CS/C(=C\\c1ccc(C(=O)c2ccc(C)cc2)n1C)S(C)=O (centres undefined)",
    "pEC50": "< 3.70"
  },
  {
    "COMPOUND": "COC(=O)/C=C/CC(=O)NS(C)(=O)=O",
    "pEC50": "< 3.70"
  },
  {
    "COMPOUND": "N=c1c2ncn3c(=O)n(-c4ccccc4)c(nc(=O)n1-c1ccccc1)c23",
    "pEC50": "< 4.84"
  },
  {
    "COMPOUND": "O=C1NC(=O)C2C3C(C(O)(c4ccccc4)c4ccccn4)=CC(/C3=C(\\c3ccccc3)c3ccccn3)C12 (centres undefined)",
    "pEC50": "< 3.70"
  },
  {
    "COMPOUND": "CCCCCCCCOC1OC(COC(C)=O)C(OC(C)=O)C(OC(C)=O)C1OC(C)=O (centres undefined)",
    "pEC50": "< 4.00"
  },
  {
    "COMPOUND": "Cc1ccc(S(=O)(=O)N2CCC(C(=O)O)(c3ccccc3)CC2)cc1",
    "pEC50": "< 3.74"
  },
  {
    "COMPOUND": "CC(=O)O[C@@H]1CC[C@]2(C)C3C[C@H](OC(C)=O)[C@]4(C)C(C(C)CCc5nc6ccccc6o5)CCC4C3[C@H](OC(C)=O)C[C@@H]2C1 (some centres undefined)",
    "pEC50": "< 4.30"
  }
]
